Reference source for all entries: patent US8946203B2

Target: human LTA4 hydrolase (Homo sapiens, UniProt P09960)
Sequence (P09960 1-611): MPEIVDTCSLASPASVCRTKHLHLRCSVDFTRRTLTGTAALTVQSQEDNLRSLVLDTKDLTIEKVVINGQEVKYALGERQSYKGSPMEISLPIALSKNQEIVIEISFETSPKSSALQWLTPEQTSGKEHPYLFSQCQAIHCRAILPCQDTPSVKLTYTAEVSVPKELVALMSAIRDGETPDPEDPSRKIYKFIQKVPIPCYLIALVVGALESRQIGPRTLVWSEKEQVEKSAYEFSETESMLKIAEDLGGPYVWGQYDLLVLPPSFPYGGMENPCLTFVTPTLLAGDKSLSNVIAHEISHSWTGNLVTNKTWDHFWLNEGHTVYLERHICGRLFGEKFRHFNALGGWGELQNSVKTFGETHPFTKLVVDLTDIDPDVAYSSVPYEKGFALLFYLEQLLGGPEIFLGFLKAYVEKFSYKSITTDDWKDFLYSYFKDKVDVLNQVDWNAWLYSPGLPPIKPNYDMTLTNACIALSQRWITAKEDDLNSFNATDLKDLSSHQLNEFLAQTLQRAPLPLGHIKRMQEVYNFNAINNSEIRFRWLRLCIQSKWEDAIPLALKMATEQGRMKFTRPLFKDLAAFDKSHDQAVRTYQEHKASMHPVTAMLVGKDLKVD
Test: LTA4H Enzyme assay (cleavage of Arg-AMC, fluorescence)
Assay type: biochemical
Conditions: LTA4H Enzyme 1 nM, Arg-AMC substrate 50 μM, room temperature 1 h, fluorescence; read-out: IC50 values of LTA4H Enzyme assay
MEASURED_METRIC: log10(IC50) (log10 of the value in nM)
Transform log10 | Measure IC50 | Unit nM

Examples with their reported log10(IC50) follow.
COMPOUND | TARGET_OR_SYSTEM | OBS_VALUE
c1cnc2c(c1)OC[C@@H](c1ccc(CN3CCOCC3)cc1)O2 | human LTA4 hydrolase (Homo sapiens, UniProt P09960) | 1.44
O=C(O)[C@H]1CCN(Cc2ccc([C@H]3COc4ccccc4O3)cc2)C1 | human LTA4 hydrolase (Homo sapiens, UniProt P09960) | -0.15
CC(=O)N1CCCN(Cc2ccc([C@H]3COc4cccnc4O3)cc2)CC1 | human LTA4 hydrolase (Homo sapiens, UniProt P09960) | -0.55

GET /values?readout=log10(IC50)&system=human LTA4 hydrolase (Homo sapiens, UniProt P09960)&item= OCCN(Cc1ccc([C@H]2COc3ccccc3O2)cc1)C1CCCCC1
-0.15

Observed log10(IC50) on human LTA4 hydrolase (Homo sapiens, UniProt P09960) for c1cncc(CNCc2ccc(C3COc4ccccc4O3)cc2)c1 (racemic) , please.
0.77

----------
Target: human LTA4 hydrolase (Homo sapiens, UniProt P09960)
Sequence (P09960 1-611): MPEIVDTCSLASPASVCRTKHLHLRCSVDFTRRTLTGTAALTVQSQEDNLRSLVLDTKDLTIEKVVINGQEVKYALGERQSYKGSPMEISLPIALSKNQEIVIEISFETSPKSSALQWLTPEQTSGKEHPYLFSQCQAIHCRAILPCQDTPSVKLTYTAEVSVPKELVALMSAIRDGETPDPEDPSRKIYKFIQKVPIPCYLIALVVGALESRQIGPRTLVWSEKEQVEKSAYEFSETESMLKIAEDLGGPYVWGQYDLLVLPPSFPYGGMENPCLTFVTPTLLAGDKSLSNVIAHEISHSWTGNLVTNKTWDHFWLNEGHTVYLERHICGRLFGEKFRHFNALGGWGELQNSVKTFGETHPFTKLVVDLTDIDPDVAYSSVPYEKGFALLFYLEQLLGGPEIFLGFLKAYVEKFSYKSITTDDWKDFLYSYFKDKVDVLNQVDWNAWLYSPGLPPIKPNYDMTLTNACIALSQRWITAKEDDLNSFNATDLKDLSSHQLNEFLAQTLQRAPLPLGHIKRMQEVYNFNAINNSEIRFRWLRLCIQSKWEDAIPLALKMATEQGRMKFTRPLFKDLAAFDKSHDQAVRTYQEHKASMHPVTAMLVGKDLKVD
Assay: LTA4H Enzyme assay (cleavage of Arg-AMC, fluorescence)
Type: biochemical
Conditions: LTA4H Enzyme 1 nM, Arg-AMC substrate 50 μM, room temperature 1 h, fluorescence; read-out: IC50 values of LTA4H Enzyme assay
pIC50: −log10 of the molar value.
Please mark 1 (yes) if the recorded pIC50 is equal to or greater than 9, and 0 (no) if it falls below.

Study these solved cases before continuing.
MOLECULE | GROUP
COCC(=O)NC1CCN(Cc2ccc([C@H]3COc4ccccc4O3)cc2)CC1 [Example 219] | 1 (yes)
CC(=O)N1C[C@@H]2CC[C@H]1CN2Cc1ccc([C@H]2COc3cccnc3O2)cc1 [Example 264] | 1 (yes)
CC(=O)N1CCN(Cc2ccc(C3COc4ccccc4O3)cc2)CC1 (racemic) [Example 11] | 0 (no)
CC(C)(CN1CCCC1)NCc1ccc([C@H]2COc3cccnc3O2)cc1 [Example 157] | 1 (yes)
c1cnc2c(c1)OC[C@H](c1ccc(CN3CCCOCC3)cc1)O2 [Example 150] | 1 (yes)

Could you please find out whether CN(C)C1CCN(Cc2ccc([C@H]3COc4ccccc4O3)cc2)C1 (stereo partly drawn) [Example 93] has pIC50 that meets 9 or exceeds it?
0 (no)

hey, is pIC50 for this one >= 9? O=C(O)C1CCCN(Cc2ccc(C3COc4ccccc4O3)cc2)C1 (racemic) [Example 113]
0 (no)

Decide: is the reported value of pIC50 for CS(=O)(=O)NC1CCN(Cc2ccc([C@H]3COc4ccccc4O3)cc2)CC1 [Example 176] equal to or greater than 9?
1 (yes)

----------
Target: human LTA4 hydrolase (Homo sapiens, UniProt P09960)
Sequence (P09960 1-611): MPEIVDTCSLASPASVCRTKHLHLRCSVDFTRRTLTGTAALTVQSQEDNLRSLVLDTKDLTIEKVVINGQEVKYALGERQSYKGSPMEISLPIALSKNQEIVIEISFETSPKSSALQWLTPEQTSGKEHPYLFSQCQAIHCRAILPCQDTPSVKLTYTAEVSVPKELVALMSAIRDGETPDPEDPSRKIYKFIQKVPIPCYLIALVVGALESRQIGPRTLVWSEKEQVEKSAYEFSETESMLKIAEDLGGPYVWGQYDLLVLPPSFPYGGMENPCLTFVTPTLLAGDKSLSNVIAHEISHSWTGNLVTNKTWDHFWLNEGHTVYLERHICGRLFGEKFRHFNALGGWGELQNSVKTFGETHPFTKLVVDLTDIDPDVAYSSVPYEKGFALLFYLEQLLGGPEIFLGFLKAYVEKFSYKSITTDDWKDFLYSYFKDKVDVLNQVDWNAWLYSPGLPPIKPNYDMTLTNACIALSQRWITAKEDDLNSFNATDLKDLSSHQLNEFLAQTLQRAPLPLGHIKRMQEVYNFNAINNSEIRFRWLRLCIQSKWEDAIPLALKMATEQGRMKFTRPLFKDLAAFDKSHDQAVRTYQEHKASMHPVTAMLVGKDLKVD
Experiment: LTA4H Enzyme assay (cleavage of Arg-AMC, fluorescence)
Format: biochemical
Details: LTA4H Enzyme 1 nM, Arg-AMC substrate 50 μM, room temperature 1 h, fluorescence; read-out: IC50 values of LTA4H Enzyme assay
MEASURED_METRIC: pIC50
Answer as the number alone; pIC50 is minus log10 of concentration in mol/L.

COMPOUND | OBS_VALUE
NC(=O)NC1CCN(Cc2ccc([C@H]3COc4ccccc4O3)cc2)CC1 | 9.66
CC(c1ccc([C@H]2COc3ccccc3O2)cc1)N1CCOCC1 (some centres unmarked) | 7.37
c1ccc2c(c1)OC[C@H](c1ccc(CN3CCOCC3)cc1)O2 (single isomer, unassigned) | 8.64

# query: pIC50 of entry CC(=O)NC1CCN(Cc2ccc([C@H]3COc4cccnc4O3)cc2)CC1
9.74

Look up pIC50 for this compound: O=C(O)[C@@H]1CC[C@H](NCc2ccc([C@H]3COc4ccccc4O3)cc2)C1
7.86

What value of pIC50 has been recorded for this entry: O=C(O)[C@@H]1CCCN(Cc2ccc([C@H]3COc4ccccc4O3)cc2)C1
9.14

Value lookup for pIC50; key = O=C(C1CCN(Cc2ccc([C@H]3COc4cccnc4O3)cc2)CC1)N1CCOCC1
9.85

Which pIC50 value is on record for CC(=O)NC1CCN(Cc2ccc([C@H]3COc4ccccc4O3)cc2)C1 (some centres unmarked) ?
9.70

----------
Target: human LTA4 hydrolase (Homo sapiens, UniProt P09960)
Test: LTA4H Enzyme assay (cleavage of Arg-AMC, fluorescence)
Assay type: biochemical
Details: LTA4H Enzyme 1 nM, Arg-AMC substrate 50 μM, room temperature 1 h, fluorescence; read-out: IC50 values of LTA4H Enzyme assay
Description: The compounds of the invention are assessed for the ability to interact with human LTA4 hydrolase in an enzymatic assay that measures the ability of the enzyme to cleave the peptide bond of arginyl-aminomethylcoumarin (Arg-AMC). […] The formation of product is assessed by measuring the fluorescence of aminomethylcoumarin product (excitation wavelength 380 nm/emission wavelength 460 nm).
MEASURED_METRIC: log10(IC50) (log10 of the value in nM)
In plain terms, each number is the log10 of measured IC50 in nM.

Answered examples (4):
COMPOUND | OBS_VALUE
COCC(=O)NC1CCN(Cc2ccc([C@H]3COc4cccnc4O3)cc2)CC1 [Example 252] | -0.82
CS(=O)(=O)NC1CCN(Cc2ccc([C@H]3COc4cccnc4O3)cc2)CC1 [Example 190] | -1.05
CNC(=O)C1CCN(Cc2ccc(C3COc4ccccc4O3)cc2)CC1 (racemic) [Example 25] | -0.12
NC(=O)N1C[C@@H]2C[C@H]1CN2Cc1ccc([C@H]2COc3cccnc3O2)cc1 [Example 268] | -0.96

Fill blank: measured log10(IC50) of the compound NC(=O)C1CCN(Cc2ccc([C@@H]3COc4cccnc4O3)cc2)CC1 [Example 207] is ____.
-0.07

Return reported log10(IC50); argument: CNC(=O)c1nnc2n1CCN(Cc1ccc([C@H]3COc4cccnc4O3)cc1)C2 [Example 242]
-0.22

Which log10(IC50) value is on record for c1ccc2c(c1)OCC(c1ccc(CN3CCOCC3)cc1)O2 (racemic) [Example 2] ?
0.39

Could you tell me which log10(IC50) is on file for c1cnc2c(c1)OC[C@H](c1ccc(CN3CCCCCC3)cc1)O2 [Example 139] ?
-1.00

Reported log10(IC50), compound Oc1ccc(CNCc2ccc([C@H]3COc4ccccc4O3)cc2)cc1 [Example 111] : ____
0.35
